System: PC-3 prostate
Assay: NCI-60 one-dose screen, 48 h (100 = growth as untreated, 0 = no growth, -100 = all killed)
Settings: 10 µM unless noted
Compounds without any hit were thinned out: in the full panel of roughly 83,000, 20% have a hit.
Recorded growth determines the label; the label ranges are 0 (below 30%), 1 (30% to below 70%), 2 (70% or more)

compound: CCCCC1CCCCN1C(=O)OCC (centres undefined)
label_class: 2

Please classify: "O=C1N=c2cc3c(cc2=C/C1=C/c1sc(=S)n(CCc2ccc(O)cc2)c1O)OCCO3" 1

Place this compound in its band: "c1ccc(Nc2nc(-c3ccccn3)cs2)nc1" 1

Bin this entry: "Cc1ccc(/C=C2\C(=O)N(C)c3ccc(S(=O)(=O)Nc4ccc(C(C)(C)C)cc4)cc32)s1" 1

Sort "CC(C)Sc1nc(NNC(N)=S)c(C#N)c(-c2ccc(F)cc2)n1" into one of the categories. 2

* * *

System: A549/ATCC NSCLC
Assay: NCI-60 one-dose screen, 48 h
Settings: 10 µM unless noted
About 83,000 compounds went through this panel and 20% of them were active in at least one assay; those are over-represented in the sample as a whole. Activity calls are given as the source filed them. The calls were made as follows: active = growth percent below 10; inactive = the rest.
Result category, one only: y = active, n = inactive

Solved cases (3 shown):
compound: Cc1ccc(Nc2ccc(Nc3ccc(C)cc3)c3c2C(=O)c2cccc(O)c2C3=O)cc1
label_class: n
--
compound: COC(=O)[C@]12CC[C@@H](C)[C@H](C)[C@@H]1C1=CC[C@@H]3[C@@]4(C)C(C=O)=C[C@@](C)(COC(C)=O)[C@@H]4[C@H](O)C[C@@]3(C)[C@]1(C)CC2
label_class: y
--
compound: CC(C)(C)CC(C)(C)Nc1c(-c2ccncc2)nc2cnccn12
label_class: n

Field: outcome | Entry: CCCCCCCCCCCC(c1ccccc1)[N+](C)(C)C (stereo not drawn) n

Can you look up the reported call for "c1csc(-c2c3ccc(=[N+]4CCCCC4)cc-3oc3cc(N4CCCCC4)ccc23)c1" for me? y

* * *

System: TK-10 renal
Assay: NCI-60 one-dose screen, 48 h
Conditions: 10 µM unless noted
Compounds without any hit were thinned out: in the full panel of roughly 83,000, 20% have a hit. Activity calls are given as the source filed them. How the source made its calls: active means growth percent below 10; inactive means the rest.
Allowed answers: active, inactive

molecule: O=C(Nc1ccccc1-c1nc2ccccc2c(=O)[nH]1)c1cc2ccccc2[nH]1
label_class: inactive

molecule: CN(c1ccccc1)c1ccc2c(c1)OCCC21CC1Nc1cnccc1C(=O)O (stereo unspecified)
label_class: inactive

molecule: CN(C)c1ccc(/C=C/C(=O)c2cccc(Nc3nc(Nc4ccccc4)nc(Nc4ccccc4)n3)c2)cc1
label_class: inactive

Each molecule tested received a call. Report the one for "CCCCCCCCn1ccc2cc(NC(=O)Cn3cc(CN4CCCC4)nn3)ccc21" . inactive

Please let me know the test result on file for "Cc1ccc(S(=O)(=O)N/N=C\c2cc(Cl)ccc2O)cc1" . inactive

* * *

System: TK-10 renal
Assay: NCI-60 one-dose screen, 48 h
Details: 10 µM unless noted
Compounds without any hit were thinned out: in the full panel of roughly 83,000, 20% have a hit. Calls of active or inactive are those of the source. Rule for the calls: active = growth percent below 10; inactive = the rest.
Bench note: report the call from active, inactive

compound: NS(=O)(=O)c1ccc(-n2nc(C(=O)N/N=C\c3ccc(F)cc3)cc2-c2ccc(Cl)cc2)cc1
label_class: inactive
//
compound: Cn1cc(-c2csc(-c3cccc(F)c3)n2)c2cccnc21
label_class: active
//
compound: CCOC(=O)c1c(-c2ccc(Cl)cc2)c(C#N)c(=O)n(-c2ccccc2CC)c1N
label_class: inactive
//
compound: O=C(COc1ccc(/C=C2\Oc3ccccc3C2=O)cc1)c1ccc(Cl)cc1
label_class: inactive

Please find the next compound below.
Dear all, I need the recorded test outcome for Cc1ccc(-n2nc3c(c(C#N)c2=O)CC(c2ccccc2Cl)C([N+](=O)[O-])=C3O)cc1 (stereo not given) , thank you. inactive

* * *

Tested on: OVCAR-5 ovarian
Experiment: NCI-60 one-dose screen, 48 h (100 = growth as untreated, 0 = no growth, -100 = all killed)
Conditions: 10 µM unless noted
This is part of a sample that, as a whole, favours compounds with a hit. Of some 83,000 tested, about 20% had one in any assay. Active and inactive are the calls of the source. The calls were made as follows: active = growth percent below 10; inactive = the rest.
assay_metric: growth

Study these solved cases before continuing.
compound: Cn1c(I)c(C#C[Si](C)(C)C)c(=O)n(C(=O)c2ccccc2)c1=O
growth: 60.9% (inactive)

compound: CNc1ccc(NC)c2c1C(=O)c1ccccc1C2=O
growth: 101% (inactive)

Provide the reported growth of each entry below, same order.
1. CCn1c(C)nc2cc(C(N)=O)ccc21
2. O=[N+]([O-])c1ccc(N2c3ccncc3Sc3ccncc32)cc1
3. N#Cc1c(-c2ccccc2)cc(-c2ccc(Nc3nc(Nc4ccc(F)cc4)nc(Nc4ccc(F)cc4)n3)cc2)nc1N
4. O=C(NCCNc1cc(-c2cn(-c3ccccc3)nc2-c2cccc(O)c2)ccn1)Nc1ccccc1
5. COc1cccc(-c2nc3sccn3c2-c2ccnc(NCCNS(=O)(=O)c3ccc(C(F)(F)F)cc3)c2)c1
6. Oc1c(CN2CCCC2)cc(COCc2ccc(Br)cc2)c2cccnc12

1: 92.6% (inactive); 2: 118% (inactive); 3: 70.9% (inactive); 4: 92.4% (inactive); 5: 88% (inactive); 6: 29.6% (inactive)

Record growth for all entries; do not skip any.
1. COc1ccc(-c2nc3sccn3c2-c2cc(-c3cc(OC)c(OC)c(OC)c3)on2)cc1
2. O=C(c1ccccc1)c1c(/C=C/c2ccc(Cl)cc2)nc2ccccc2c1/C=C/c1cccs1
3. CCOP(=O)(OCC)C1CP(=O)(c2ccccc2)CC(C)=C1Cl (stereo unspecified)
4. NC1=NCc2nc3ccccc3c(=O)n2C1
5. COc1ccc(C(=NN=C(N)N)c2ccc(OC)cc2)cc1
6. Cc1nn(-c2ccccc2)c2nc3c(c(-c4ccc(Cl)cc4)c12)CNC1(CCSCC1)N3
7. CC(=O)OC1CCC2(C)C(=CC3C4CCC(=O)C4(C)CCC32)C1 (stereo unspecified)

["124% (inactive)", "98.1% (inactive)", "97.8% (inactive)", "85.8% (inactive)", "69.1% (inactive)", "98.2% (inactive)", "100% (inactive)"]

Please go through the list and note growth for each compound.
1. CCCCc1ccc(Nc2ccc(Nc3ccc(CCCC)cc3S(=O)(=O)O)c3c2C(=O)c2ccccc2C3=O)c(S(=O)(=O)O)c1
2. Cc1c(C(=O)N[C@@H](Cc2ccccc2)C(=O)C(=O)NCCc2ccccc2)[nH]c2ccccc2c1=O

97.8% (inactive)
102% (inactive)

Would you be so kind as to report growth for each listed record?
1. Nc1ccc2c(c1)c(N)nn2C(=O)Nc1ccc(Cc2ccccc2)cc1
2. CCOC(=O)c1c2ncccc2n2c(=O)n(-c3ccccc3C)nnc12
3. CCCCCCCC/C=C\CCCCCCCCOc1ccccc1CC(=O)NCC[N+](C)(C)C
4. COc1ccc(N=Nc2ccc(O)c(=O)cc2)cc1

67.2% (inactive)
101% (inactive)
25% (inactive)
47.8% (inactive)

* * *

System: SNB-19 CNS
Test: NCI-60 one-dose screen, 48 h (100 = growth as untreated, 0 = no growth, -100 = all killed)
Conditions: 10 µM unless noted
About 83,000 compounds went through this panel and 20% of them were active in at least one assay; those are over-represented in the sample as a whole.
growth strictly less than 80% = satisfied. Otherwise not satisfied.

Before answering, review these 2 worked examples.
compound: Cn1cc2c(c1)-c1nc(Nc3ccccc3)ncc1CC2
label_class: satisfied

compound: N#C/C(=C\c1ccc(Br)cc1)n1nnc2cc(F)c(F)cc21
label_class: satisfied

Threshold test, growth < 80%: "Cc1occc1-c1n[nH]c(=S)n1N1C(=O)CSC1=S" not satisfied

Criterion: growth strictly below 80%. Is it met by "NC(N)=NN=C(c1ccccc1)c1ccccc1" ? satisfied

Strictly below 80% in growth? "COc1cccc(-c2nc3sccn3c2-c2ccnc(NCCNS(=O)(=O)c3cccc(F)c3)c2)c1" satisfied

* * *

Tested on: SNB-19 CNS
Experiment: NCI-60 one-dose screen, 48 h (100 = growth as untreated, 0 = no growth, -100 = all killed)
Conditions: 10 µM unless noted
Experimental: Growth inhibition of the SNB-19 human tumor cell line is measured as a screen for anti-cancer activity. Cells are grown in 96 well plates and exposed to the test compound for 48 hours. Compounds are tested at a single concentration, which is 10^-5 M for most compounds. The reported endpoint is percent growth (GI% or GIPRCNT), where numbers from 0 - 100% represent growth inhibition, and numbers from -100% - 0 represent cell death. For example, a value of 40 represents 60% growth inhibition. […]
Compounds without any hit were thinned out: in the full panel of roughly 83,000, 20% have a hit.
assay_metric: growth (%)
Answers are plain numbers, in %.

As a guide, the following entries are already answered.
test_smiles: COc1cc(/C=C/C(=O)c2ccc(Nc3nc(Nc4ccc(F)cc4)nc(Nc4ccc(Cl)cc4)n3)cc2)cc(OC)c1OC
growth [%]: 101
--
test_smiles: COc1cc(/C=N/NC(=O)Cn2c(C(C)C)nc3ccccc32)ccc1O
growth [%]: 99.4
--
test_smiles: COc1ccc2c(c1)C(=O)/C(=C/c1cccc(OCC(=O)Nc3nc(C)c(C)s3)c1)O2
growth [%]: 80.6

Next item in the queue.
Can you share its growth? I mean this molecule: "Cc1ccc(N(C(=O)CCc2c[nH]c3ccccc23)[C@H](C(=O)Nc2ccc(Cl)cc2)c2cccc([N+](=O)[O-])c2)cc1" 92.2

src = PubChem BioAssay (NCI)
